Hello, the source for this data is PubChem BioAssay AID2060499, in case you need it.

- Test system: 777334-354-R2-J4-PDC tumor spheroids with HUVEC/MSC, viability;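 also: spheroids exposed to compounds for 7 days before readout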
- assay procedure: Anticancer human tumor 777334-354-R2-J4-PDC patient-derived pancreatic adenocarcinoma cell line growth inhibition [GQUAD]
- cond: second compound 0.1 µM; first compound 1 µM; active compounds read low
This listing pairs compounds with measured viability, T/C.

Check out these entries, answers already filled in.
COc1cccc2c1C(=O)c1c(O)c3c(c(O)c1C2=O)CC(O)(C(=O)CO)CC3OC1CC(N)C(O)C(C)O1 (stereo not drawn) + Cc1[nH]c2ccc(F)cc2c1-c1nc2c3cccnc3c3ncccc3c2[nH]1 : 49.2%
CC1COCCN1c1cc(-c2ccnn2C)c2ccnc(-c3ccn[nH]3)c2n1 (stereo not drawn) + Cc1cnc(CNC(=O)c2c(=O)c3ccc(N4CCCN(C)CC4)nc3n3c2sc2ccccc23)cn1 : 41.9%

Let's switch to this compound now.
Which viability, T/C value belongs to COc1ncnc(C2CC2)c1-c1ncc2cnn(Cc3ccc(-c4nc(C(F)(F)F)cn4C(C)C)cc3)c2n1 + Cc1[nH]c2ccc(F)cc2c1-c1nc2c3cccnc3c3ncccc3c2[nH]1 ?
92.1%
